- experiment.notes: Concentration in autopsy samples of cerebral cortex of deceased patients, HPLC-UV
- Type: in vivo, human
- condition.notes: human, cerebral cortex; patient 15, cumulative dose 300 mg, treatment 3 days, 324 h between last administration and death, 80 h between death and sampling, LLOQ 0.10 μg/g; read-out: Concn in cerebral cortex (autopsy)
Starred links: 1 amine or outer side, 2 acyl side, 3 side chain; linkers in the order of their positions; H or OH if unused. Positions of bridges follow the written chain, without caps; N, C: chain ends. Non-standard residues stand in square brackets, D forms with d. Residues, ends and D or L forms follow the SMILES beside them. *: point of attachment. hTyr(3S-OH,4S-OH,3'-OSO3H) = N[C@H](C(=O)O)[C@H](O)[C@@H](O)c1ccc(O)c(OS(=O)(=O)O)c1; Orn(4R-OH,5R-OH) = O=C([C@H](C[C@@H](O)[C@@H](O)N[*:3])N[*:1])[*:2]; Pro(3S-OH,4S-Me) = C[C@H]1CN[C@H](C(=O)O)[C@H]1O; X1 = CCCCCOc1ccc(-c2cc(-c3ccc(C(=O)*)cc3)no2)cc1; Gln(3R-OH) = NC(=O)C[C@@H](O)[C@H](N)C(=O)O; Hyp = O=C(O)[C@@H]1C[C@@H](O)CN1
value.type: tissue level at time at 324 h

{"columns": ["molecule", "assay.value"],
 "data": [
  ["CCCCCOc1ccc(-c2cc(-c3ccc(C(=O)N[C@H]4C[C@@H](O)[C@@H](O)NC(=O)[C@@H]5[C@@H](O)[C@@H](C)CN5C(=O)[C@H]([C@H](O)CC(N)=O)NC(=O)[C@H]([C@H](O)[C@@H](O)c5ccc(O)c(OS(=O)(=O)O)c5)NC(=O)[C@@H]5C[C@@H](O)CN5C(=O)[C@H]([C@@H](C)O)NC4=O)cc3)no2)cc1 [micafungin] (X1-[Orn(4R-OH,5R-OH)]T[Hyp][hTyr(3S-OH,4S-OH,3'-OSO3H)][Gln(3R-OH)][Pro(3S-OH,4S-Me)]; lactam 1-C)", "< 100 ng/g"]
]}

----------
- experiment.notes: clinical
- condition.notes: human, in vivo, iv, 300 mg
Starred links: 1 amine or outer side, 2 acyl side, 3 side chain; linkers in the order of their positions; H or OH if unused. Positions of bridges follow the written chain, without caps; N, C: chain ends. Non-standard residues stand in square brackets, D forms with d. Residues, ends and D or L forms follow the SMILES beside them. *: point of attachment. pTerphenylCO(4''-OnC5H11) = CCCCCOc1ccc(-c2ccc(-c3ccc(C(=O)*)cc3)cc2)cc1; Orn(4R-OH,5R-OH) = O=C([C@H](C[C@@H](O)[C@@H](O)N[*:3])N[*:1])[*:2]; hTyr(3S-OH,4S-OH) = N[C@H](C(=O)O)[C@H](O)[C@@H](O)c1ccc(O)cc1; Pro(3S-OH,4S-Me) = C[C@H]1CN[C@H](C(=O)O)[C@H]1O; Hyp = O=C(O)[C@@H]1C[C@@H](O)CN1
value.type: Kp at 3 h

{"columns": ["compound", "value.type", "assay.value"],
 "data": [
  ["CCCCCOc1ccc(-c2ccc(-c3ccc(C(=O)N[C@H]4C[C@@H](O)[C@@H](O)NC(=O)[C@@H]5[C@@H](O)[C@@H](C)CN5C(=O)[C@H]([C@@H](C)O)NC(=O)[C@H]([C@H](O)[C@@H](O)c5ccc(O)cc5)NC(=O)[C@@H]5C[C@@H](O)CN5C(=O)[C@H]([C@@H](C)O)NC4=O)cc3)cc2)cc1 [anidulafungin] ({pTerphenylCO(4''-OnC5H11)}-[Orn(4R-OH,5R-OH)]T[Hyp][hTyr(3S-OH,4S-OH)]T[Pro(3S-OH,4S-Me)]; lactam 1-C)", "Kp at 3 h", 0.01]
]}

----------
- experiment.notes: Concentration in autopsy samples of cerebral cortex of deceased patients, HPLC-UV
- Format: in vivo, human
- condition.notes: human, cerebral cortex, 1800 mg; patient 8, cumulative dose 1,800 mg, treatment 17 days, 313 h between last administration and death, 25 h between death and sampling, LLOQ 0.05 μg/g; read-out: Concn in cerebral cortex (autopsy)
Starred links: 1 amine or outer side, 2 acyl side, 3 side chain; linkers in the order of their positions; H or OH if unused. Positions of bridges follow the written chain, without caps; N, C: chain ends. Non-standard residues stand in square brackets, D forms with d. Residues, ends and D or L forms follow the SMILES beside them. *: point of attachment. pTerphenylCO(4''-OnC5H11) = CCCCCOc1ccc(-c2ccc(-c3ccc(C(=O)*)cc3)cc2)cc1; Orn(4R-OH,5R-OH) = O=C([C@H](C[C@@H](O)[C@@H](O)N[*:3])N[*:1])[*:2]; hTyr(3S-OH,4S-OH) = N[C@H](C(=O)O)[C@H](O)[C@@H](O)c1ccc(O)cc1; Pro(3S-OH,4S-Me) = C[C@H]1CN[C@H](C(=O)O)[C@H]1O; Hyp = O=C(O)[C@@H]1C[C@@H](O)CN1

{"columns": ["molecule", "tissue level at time at 313 h (ng/g)"],
 "data": [
  ["CCCCCOc1ccc(-c2ccc(-c3ccc(C(=O)N[C@H]4C[C@@H](O)[C@@H](O)NC(=O)[C@@H]5[C@@H](O)[C@@H](C)CN5C(=O)[C@H]([C@@H](C)O)NC(=O)[C@H]([C@H](O)[C@@H](O)c5ccc(O)cc5)NC(=O)[C@@H]5C[C@@H](O)CN5C(=O)[C@H]([C@@H](C)O)NC4=O)cc3)cc2)cc1 [anidulafungin] ({pTerphenylCO(4''-OnC5H11)}-[Orn(4R-OH,5R-OH)]T[Hyp][hTyr(3S-OH,4S-OH)]T[Pro(3S-OH,4S-Me)]; lactam 1-C)", 280]
]}

----------
- experiment.notes: Concentration in arterial plasma of critically ill adults drawn simultaneously with CSF, HPLC-UV
- Type: in vivo, human
- condition.notes: human, plasma, intravenous; patient 2, cumulative dose 200 mg, treatment day 1, sampling before and 1, 4, 8, 12, 18, 24 h after start of infusion, steady state not reached; read-out: Cmax (peak concentration) in plasma
Starred links: 1 amine or outer side, 2 acyl side, 3 side chain; linkers in the order of their positions; H or OH if unused. Positions of bridges follow the written chain, without caps; N, C: chain ends. Non-standard residues stand in square brackets, D forms with d. Residues, ends and D or L forms follow the SMILES beside them. *: point of attachment. pTerphenylCO(4''-OnC5H11) = CCCCCOc1ccc(-c2ccc(-c3ccc(C(=O)*)cc3)cc2)cc1; Orn(4R-OH,5R-OH) = O=C([C@H](C[C@@H](O)[C@@H](O)N[*:3])N[*:1])[*:2]; hTyr(3S-OH,4S-OH) = N[C@H](C(=O)O)[C@H](O)[C@@H](O)c1ccc(O)cc1; Pro(3S-OH,4S-Me) = C[C@H]1CN[C@H](C(=O)O)[C@H]1O; Hyp = O=C(O)[C@@H]1C[C@@H](O)CN1

{"columns": ["compound", "Cmax / ng/mL"],
 "data": [
  ["CCCCCOc1ccc(-c2ccc(-c3ccc(C(=O)N[C@H]4C[C@@H](O)[C@@H](O)NC(=O)[C@@H]5[C@@H](O)[C@@H](C)CN5C(=O)[C@H]([C@@H](C)O)NC(=O)[C@H]([C@H](O)[C@@H](O)c5ccc(O)cc5)NC(=O)[C@@H]5C[C@@H](O)CN5C(=O)[C@H]([C@@H](C)O)NC4=O)cc3)cc2)cc1 [anidulafungin] ({pTerphenylCO(4''-OnC5H11)}-[Orn(4R-OH,5R-OH)]T[Hyp][hTyr(3S-OH,4S-OH)]T[Pro(3S-OH,4S-Me)]; lactam 1-C)", 2720]
]}

----------
- experiment.notes: Concentration in arterial plasma of critically ill adults drawn simultaneously with CSF, HPLC-UV
- Format: in vivo, human
- condition.notes: human, plasma, iv, 1300 mg; patient 6, arterial blood simultaneous with lumbar puncture, cumulative dose 1,300 mg, treatment day 13, 2.5 h from start of infusion, steady state; read-out: Plasma concn
Starred links: 1 amine or outer side, 2 acyl side, 3 side chain; linkers in the order of their positions; H or OH if unused. Positions of bridges follow the written chain, without caps; N, C: chain ends. Non-standard residues stand in square brackets, D forms with d. Residues, ends and D or L forms follow the SMILES beside them. *: point of attachment. hTyr(3S-OH,4S-OH,3'-OSO3H) = N[C@H](C(=O)O)[C@H](O)[C@@H](O)c1ccc(O)c(OS(=O)(=O)O)c1; Orn(4R-OH,5R-OH) = O=C([C@H](C[C@@H](O)[C@@H](O)N[*:3])N[*:1])[*:2]; Pro(3S-OH,4S-Me) = C[C@H]1CN[C@H](C(=O)O)[C@H]1O; X1 = CCCCCOc1ccc(-c2cc(-c3ccc(C(=O)*)cc3)no2)cc1; Gln(3R-OH) = NC(=O)C[C@@H](O)[C@H](N)C(=O)O; Hyp = O=C(O)[C@@H]1C[C@@H](O)CN1
value.type: level at 2.5 h (ng/mL)

{"columns": ["compound", "assay.value"],
 "data": [
  ["CCCCCOc1ccc(-c2cc(-c3ccc(C(=O)N[C@H]4C[C@@H](O)[C@@H](O)NC(=O)[C@@H]5[C@@H](O)[C@@H](C)CN5C(=O)[C@H]([C@H](O)CC(N)=O)NC(=O)[C@H]([C@H](O)[C@@H](O)c5ccc(O)c(OS(=O)(=O)O)c5)NC(=O)[C@@H]5C[C@@H](O)CN5C(=O)[C@H]([C@@H](C)O)NC4=O)cc3)no2)cc1 [micafungin] (X1-[Orn(4R-OH,5R-OH)]T[Hyp][hTyr(3S-OH,4S-OH,3'-OSO3H)][Gln(3R-OH)][Pro(3S-OH,4S-Me)]; lactam 1-C)", 3510]
]}

From: paper PMC7318006
